Target: DCN1-UBC12 interaction (Homo sapiens (Human), UniProt Q96GG9)
Sequence (Q96GG9 60-248 limits assumed): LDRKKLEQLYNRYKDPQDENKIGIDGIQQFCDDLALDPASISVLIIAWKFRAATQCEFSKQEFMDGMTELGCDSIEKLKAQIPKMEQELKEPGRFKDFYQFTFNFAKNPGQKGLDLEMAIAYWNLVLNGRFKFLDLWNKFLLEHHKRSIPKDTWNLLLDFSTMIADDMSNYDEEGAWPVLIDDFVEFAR
Assay: biochemical
Assay type: binding
Details: read-out: TR-FRET IC50
Property Name: pIC50
Scale explanation: pIC50 corresponds to minus log10 of a concentration expressed in moles per litre.

Example compounds with recorded pIC50:
Compound	pIC50
CCCN1CCC(N(CC2CCCCC2)C(=O)Nc2cccc(C(F)(F)F)c2)CC1	5.91
CCCC(C)N1CCC(N(Cc2ccccc2NC(=O)CCl)C(=O)Nc2cccc(C(F)(F)F)c2)CC1 (stereo not drawn) [A38]	6.68
CCCC(C)N1CCC(N(Cc2ccccc2)C(=O)Nc2ccc(F)c(S(F)(F)(F)(F)F)c2)CC1 (stereo not drawn)	6.53
CCCC(C)N1CCC(N(Cc2ccccc2)C(=O)Nc2cccc(-c3ccccc3)c2)CC1 (stereo not drawn)	5.57
CCCC(C)N1CCC(N(Cc2ccccc2)C(=O)Nc2cc(C(F)(F)F)ccc2F)CC1 (stereo not drawn)	5.19

[in] Give the measured pIC50 for O=C(c1cccc(F)c1)N1CCC(c2nc3ccccc3s2)CC1
[out] 4.50

[in] Give the reported value of pIC50 for this record: CCCC(C)N1CCC(N(Cc2ccccc2)C(=O)Nc2cccc(F)c2F)CC1 (stereo not drawn)
[out] 5.09

[in] In one line, give reported pIC50 of the entry C=CS(=O)(=O)Nc1cccc(CN(C(=O)Nc2cccc(C(F)(F)F)c2)C2CCN(C(C)CCC)CC2)c1 (stereo not drawn) [drawing 844] .
[out] 6.78

[in] Please list pIC50 recorded for the compound CCCC(C)N1CCC(N(Cc2ccc3c(c2)OCO3)C(=O)Nc2ccc(F)c(C(F)(F)F)c2)CC1 (stereo not drawn)
[out] 6.43

[in] Specify reported pIC50 for the compound shown: CCCCN1CCC(C(Cc2ccccc2)C(=O)Nc2cccc(C(F)(F)F)c2)CC1 (stereo not drawn)
[out] 5.15

[in] Quote pIC50 reported for CC(C1CCC1)N1CCC(N(Cc2ccccc2)C(=O)Nc2cc(F)cc(C(F)(F)F)c2)CC1 (stereo not drawn) please.
[out] 6.84

[in] Query pIC50 for Cc1cccc(CN2CCC(NC(=O)Nc3cccc(C(F)(F)F)c3)CC2)c1
[out] 5.17
